Entry source: paper PMC7819943

- Target System: OsWOX13 (Oryza sativa, UniProt Q5QMM3 1-267)
- Sequence: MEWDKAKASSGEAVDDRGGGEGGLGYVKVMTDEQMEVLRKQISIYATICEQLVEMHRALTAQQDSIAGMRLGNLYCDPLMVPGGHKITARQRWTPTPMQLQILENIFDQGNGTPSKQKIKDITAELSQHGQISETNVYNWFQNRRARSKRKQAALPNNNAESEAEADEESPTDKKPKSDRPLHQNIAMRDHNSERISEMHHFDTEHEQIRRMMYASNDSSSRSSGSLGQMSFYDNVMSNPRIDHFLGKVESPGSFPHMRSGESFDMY
- Test Details: protein-binding microarray (RPBM); PBS, 2% BSA, 51.3 ng/ul salmon testes DNA, 50 uM zinc acetate, 200 nM TF, 25 C, 1 h; high values mean tight binding
- Test Context: protein: recombinant; tags: N-terminal polyhistidine and DsRed monomer fusion (pET32a); label: CyDye5-dUTP incorporated in the synthesized complementary strand; 3' TTTTT single-stranded linker to array surface; dsDNA, one strand shown
The full ranking holds about 35,000 sequences; the median of “fluorescence intensity (a.u.)” is about 10,000, and the highest 2% start at about 52,000. This is one part of a sample in which the highest values are shown more often than they occur.
Reported Property: binding signal

Seq: AAGCCTAATTAATCCATCCTTAGCAGATGTGGGTTACCGTCGGAGTCACCTAGTGCAG
Reported Measurement: 8630 fluorescence intensity (a.u.)
//
Seq: GATTAATTTACTAGACGAATCTTTTAAGCCTAATTACTCCCGGAGTCACCTAGTGCAG
Reported Measurement: 36100 fluorescence intensity (a.u.)
//
Seq: TCATCTAATTAATTGGCAAGGTGATATGCGTCCCTGAAAACGGAGTCACCTAGTGCAG
Reported Measurement: 39500 fluorescence intensity (a.u.)
//
Seq: TGCTAGAATGATTTACGTTATGAAACTGAGGGAGTACATCCGGAGTCACCTAGTGCAG
Reported Measurement: 5380 fluorescence intensity (a.u.)
//
Seq: TCTCATCAATTGAATGGATATTATATTTTAATGTGTTCAGCGGAGTCACCTAGTGCAG
Reported Measurement: 8660 fluorescence intensity (a.u.)

* * *

The following sequences are shown together with reported binding signal values.
- Target System: OsWOX13 (Oryza sativa, UniProt Q5QMM3 1-267)
- Sequence: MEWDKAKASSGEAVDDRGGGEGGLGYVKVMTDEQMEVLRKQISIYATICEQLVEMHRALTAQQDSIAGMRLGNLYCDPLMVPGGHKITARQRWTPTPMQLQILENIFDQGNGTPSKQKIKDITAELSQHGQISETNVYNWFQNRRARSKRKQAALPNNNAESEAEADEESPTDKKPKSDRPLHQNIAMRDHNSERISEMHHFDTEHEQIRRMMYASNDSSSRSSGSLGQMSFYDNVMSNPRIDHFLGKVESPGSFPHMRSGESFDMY
- Test Details: protein-binding microarray (RPBM); PBS, 2% BSA, 51.3 ng/ul salmon testes DNA, 50 uM zinc acetate, 200 nM TF, 25 C, 1 h; high values mean tight binding
- Test Context: protein: recombinant; tags: N-terminal polyhistidine and DsRed monomer fusion (pET32a); label: CyDye5-dUTP incorporated in the synthesized complementary strand; 3' TTTTT single-stranded linker to array surface; dsDNA, one strand shown
The full ranking holds about 35,000 sequences; the median of “fluorescence intensity (a.u.)” is about 10,000, and the highest 2% start at about 52,000. Only a selection was taken, and the highest values are over-represented in it overall.

Seq: CACTTAACTTAATTAGTTAATTATTGCTCTATTTTCTCTGCGGAGTCACCTAGTGCAG
binding signal: 60500 fluorescence intensity (a.u.)
//
Seq: ACCCTCATCTCTTCTCCTGATTGAATTGTCTTCCTCAACCCGGAGTCACCTAGTGCAG
binding signal: 30400 fluorescence intensity (a.u.)
//
Seq: AATTGGCTTGGCTAATTAATTACTCCATTTGCGAACATGGCGGAGTCACCTAGTGCAG
binding signal: 4010 fluorescence intensity (a.u.)
//
Seq: TTGACTGATTGCACGTCCAACCATAATTTCTTTTCGTCCACGGAGTCACCTAGTGCAG
binding signal: 58600 fluorescence intensity (a.u.)
//
Seq: ATAATTGATTCAACCTCGTTCTTAATTTGATACATCCTTCCGGAGTCACCTAGTGCAG
binding signal: 32300 fluorescence intensity (a.u.)
//
Seq: TCGATCACAAATTAATATTGTTTGCATACATACTCATATGCGGAGTCACCTAGTGCAG
binding signal: 6200 fluorescence intensity (a.u.)
//
Seq: ATGCGATTGACTAATTAATTGACTGGGCTTTGGCATTGGGCGGAGTCACCTAGTGCAG
binding signal: 65500 fluorescence intensity (a.u.)
//
Seq: CCTAATTGACAAATGATTTCACCACGTCCCTTTCCATTTTCGGAGTCACCTAGTGCAG
binding signal: 34200 fluorescence intensity (a.u.)
//
Seq: TTAACAATTGAAAGATCATCTCATTGGTTAATTTATTTGGCGGAGTCACCTAGTGCAG
binding signal: 6220 fluorescence intensity (a.u.)
